test details: Example 5: multiple-dose 3-way crossover PK study of two IV regimens vs 100 mg oral Q6h
condition summary: human, plasma, iv, 50 mg, Mean Cmax after the first dose, plasma tramadol; 50 mg IV regimen
Counter-ions that a name gives are not always drawn.
measurement kind: Cmax

molecule	value
COc1cccc([C@]2(O)CCCC[C@H]2CN(C)C)c1 (racemic) [Tramadol, hydrochloride]	~273 ng/mL

* * *

test details: Observed steady-state PK of oral tramadol Q6h (threshold PK parameters)
condition summary: human, plasma, po, 100 mg
Where a name gives a salt, the structure may show the parent alone.
measurement kind: Cmax (ng/mL)

compound	measurement kind	unit descriptor	value
COc1cccc([C@]2(O)CCCC[C@H]2CN(C)C)c1 (racemic) [Tramadol, hydrochloride]	Cmax	ng/mL	676

* * *

test details: Example 5: multiple-dose 3-way crossover PK study of two IV regimens vs 100 mg oral Q6h
condition summary: human, plasma, iv, 50 mg, Mean Cmax after the second dose, plasma tramadol; 50 mg IV regimen
Where a name gives a salt, the structure may show the parent alone.
measurement kind: Cmax

compound	value
COc1cccc([C@]2(O)CCCC[C@H]2CN(C)C)c1 (racemic) [Tramadol, hydrochloride]	~451 ng/mL

* * *

test details: Observed steady-state PK of oral tramadol Q6h (threshold PK parameters)
condition summary: human, plasma, po, 100 mg
Structures can show the parent of a compound that is named as a salt.

molecule	AUC, ng·h/mL
COc1cccc([C@]2(O)CCCC[C@H]2CN(C)C)c1 (racemic) [Tramadol, hydrochloride]	3230

* * *

test details: Example 5: multiple-dose 3-way crossover PK study of two IV regimens vs 100 mg oral Q6h
condition summary: human, plasma, iv, 50 mg, Mean Cmax concentration after the third administered dose, plasma tramadol; 50 mg IV regimen
Counter-ions that a name gives are not always drawn.

molecule	Cmax
COc1cccc([C@]2(O)CCCC[C@H]2CN(C)C)c1 (racemic) [Tramadol, hydrochloride]	~666 ng/mL
